# protocol summary: physchem
# assay conditions: octanol/water, pH 6.5
quantity kind: logD
Please reply with the number alone, leaving off any unit.

Reported logD, compound `N#CCCCn1c(Cn2c(=O)n(C3CC3)c3ccncc32)nc2ccccc21` : ____
2.1

====

# protocol summary: in vivo
# assay conditions: mouse, plasma, po, 10 mg/kg
Reported AUC is given for each of the following molecules.
Report the figure in ng·h/mL without appending any unit label.

Reported AUC, molecule `N#CCCCn1c(Cn2c(=O)n(C3CC3)c3ccncc32)nc2ccccc21` : ____
600

# iterate: `CCS(=O)(=O)CCCn1c(Cn2c(=O)n(CC(F)(F)F)c3ccncc32)nc2ccccc21`
2000

In the following, a different molecule is considered.
Reported AUC, molecule `CS(=O)(=O)CCCn1c(Cn2c(=O)n(CC(F)(F)F)c3ccncc32)nc2ccccc21` : ____
1430

From: ChEMBL document CHEMBL1146342
